- experimentNotes: Approximate solubility by solvent aliquot addition, visual inspection
- Format: physicochemical
- measurementSetup: organic solvent or mixture, thermodynamic from solid; toluene, ambient temperature; read-out: Solubility
assayEndpoint: solubility (µg/mL)
The figure you give is taken to be in µg/mL; do not add the unit.

Any idea what its solubility is? The molecule is CC(C)(c1ccc(OCc2ccnc(NS(C)(=O)=O)n2)cc1)c1cc(Cl)c(OCCCl)c(C#N)c1
1000

----------
- experimentNotes: Amorphous solubility by slow addition from organic stock into aqueous media (UV/Vis scattering, DLS)
- Type: physicochemical
- measurementSetup: 0.5% wt simulated intestinal fluid in PBS, fassgf or other biorelevant, kinetic from dmso stock; 0.5% SIF (pH 6.5)
assayEndpoint: solubility

Any idea what its solubility is? The compound is CC(C)(c1ccc(OCc2ccnc(NS(C)(=O)=O)n2)cc1)c1cc(Cl)c(OCCCl)c(C#N)c1 [amorphous form of Compound I]
> 25 µg/mL
